This collection of values is drawn from paper PMC6102577.

# Tested on: LPS-stimulated NO production in RAW 264.7 cells
# assay_details: Inhibition of LPS-induced NO production (nitrite accumulation, Griess reaction) in RAW 264.7 cells
# Assay type: cell-based
# condition_set: RAW 264.7 cells, LPS 0.1 μg/mL 24 h; means ± S.D.; read-out: IC50 (inhibition of LPS-induced NO production)
test_readout: IC50 (nM)
Answer format: numeric, nM implied, no suffix.

Input: // IC50 lookup, key: COc1cccc(Nc2nc3ccccc3c3[nH]nc(N)c23)c1
Output: 720

* * *

Reported Cell Survival Rate at 10 μM by item:
# Tested on: RAW 264.7 cells
# assay_details: Cell viability (XTT method) of RAW 264.7 cells
# Assay type: cell-based
# condition_set: compound 10 μM, 24 h, means ± S.D.
Reply with the number and its unit after it.

These recorded examples may help you get a feel for the data.
Nc1n[nH]c2c1c(Nc1ccc(O)cc1)nc1ccccc12 :: 87.84 ± 0.15%
CC(=O)c1cccc(Nc2nc3ccccc3c3[nH]nc(N)c23)c1 :: 94.37 ± 0.36%
CC(=O)c1ccc(Nc2nc3ccccc3c3[nH]nc(N)c23)cc1 :: 87.80 ± 0.11%

Input: I have this compound here, Nc1n[nH]c2c1c(Nc1ccc(C(=O)O)cc1)nc1ccccc12 , and I need its recorded Cell Survival Rate at 10 μM.
Output: 85.42 ± 0.77%

Input: Continue with COc1cc(Nc2nc3ccccc3c3[nH]nc(N)c23)cc(OC)c1OC
Output: 85.24 ± 0.04%
